From: patent US8133910B2

- experimental.system: recombinant human S1P1 receptor (Homo sapiens, UniProt P21453)
- Sequence (P21453 whole entry): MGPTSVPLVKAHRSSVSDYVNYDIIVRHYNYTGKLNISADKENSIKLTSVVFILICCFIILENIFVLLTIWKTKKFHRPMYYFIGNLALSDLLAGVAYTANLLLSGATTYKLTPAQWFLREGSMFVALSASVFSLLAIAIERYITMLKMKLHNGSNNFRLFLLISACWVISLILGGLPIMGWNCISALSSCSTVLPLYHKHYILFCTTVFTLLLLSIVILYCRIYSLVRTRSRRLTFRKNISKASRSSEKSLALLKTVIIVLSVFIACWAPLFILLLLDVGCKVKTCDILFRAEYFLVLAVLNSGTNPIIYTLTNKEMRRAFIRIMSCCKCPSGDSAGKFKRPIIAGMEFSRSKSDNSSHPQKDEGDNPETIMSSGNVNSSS
- protocol.text: GTPγS assay to determine EC50 values
- cond: 35S-GTPγS binding, membrane preparations of CHO cells expressing recombinant human S1P1 receptor, pH 7.4
Mark each entry 1 if its EC50 sits below 3 nM, and -1 for all others.

These solved cases illustrate the format of a correct answer.
{"compound": "Cc1cc(-c2nnc(-c3ccc(CC(C)C)s3)o2)cc(C)c1OCC(O)CNC(=O)CO (stereo not drawn)", "experimental.system": "recombinant human S1P1 receptor (Homo sapiens, UniProt P21453)", "classification": 1}
{"compound": "CCc1cc(-c2nnc(-c3cc(C)c(CC(C)C)s3)o2)cc(C)c1OC[C@@H](O)CNC(=O)CO", "experimental.system": "recombinant human S1P1 receptor (Homo sapiens, UniProt P21453)", "classification": 1}
{"compound": "Cc1cc(-c2nnc(-c3ccc(CC(C)C)s3)o2)cc(C)c1OC[C@@H](O)CNC(=O)CO", "experimental.system": "recombinant human S1P1 receptor (Homo sapiens, UniProt P21453)", "classification": -1}
{"compound": "Cc1cc(-c2noc(-c3ccc(CC(C)C)s3)n2)cc(C)c1OCC(O)CNC(=O)CO (stereo not drawn)", "experimental.system": "recombinant human S1P1 receptor (Homo sapiens, UniProt P21453)", "classification": 1}
{"compound": "CCCc1ccc(-c2nc(-c3cc(C)c(OC[C@@H](O)CNC(=O)CO)c(CC)c3)no2)s1", "experimental.system": "recombinant human S1P1 receptor (Homo sapiens, UniProt P21453)", "classification": 1}

Field: next compound
Q: State whether 3 nM exceeds EC50 recorded for CCCc1ccc(-c2nc(-c3cc(C)c(OC[C@H](O)CNC(=O)CO)c(C)c3)no2)s1 .
A: 1
